The reported numbers originate from patent US20220025021A1.

- experimental system: HIV-1 pseudovirus X1193_c1 (HIV-1)
- method notes: cell-based or functional assay
The label is Fulfilled for IC50 (neutralization in TZM.bl cells) below 0.1 µg/mL and Not fulfilled for IC50 (neutralization in TZM.bl cells) equal to or exceeding 0.1 µg/mL.

[
  {
    "binder": "MS-81 (antibody, V domains shown) VH: QVQLVQSGPEVRKPGTSVKVSCKAPGNTLKTYDLHWVRSVPGQGLQWMGWISHEGDKKVIVERFKAKVTIDWDRSTNTAYLELSGLTSGDTAVYYCAKGSKHRLRDYALYDDDGALNWAVDVDYLSNLEFWGQGTAVTVSS VL: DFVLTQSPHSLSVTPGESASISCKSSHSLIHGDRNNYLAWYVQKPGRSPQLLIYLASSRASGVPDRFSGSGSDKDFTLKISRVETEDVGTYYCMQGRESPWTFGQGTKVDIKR",
    "group label": "Not fulfilled"
  },
  {
    "binder": "MS-70 (antibody, V domains shown) VH: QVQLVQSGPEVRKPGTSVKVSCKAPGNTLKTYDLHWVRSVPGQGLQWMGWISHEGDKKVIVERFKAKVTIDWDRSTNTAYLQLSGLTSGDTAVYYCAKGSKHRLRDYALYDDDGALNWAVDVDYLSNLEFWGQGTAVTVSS VL: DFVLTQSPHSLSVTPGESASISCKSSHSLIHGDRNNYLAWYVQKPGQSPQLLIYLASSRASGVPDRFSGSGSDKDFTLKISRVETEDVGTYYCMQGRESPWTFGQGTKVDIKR",
    "group label": "Not fulfilled"
  },
  {
    "binder": "MS-72 (antibody, V domains shown) VH: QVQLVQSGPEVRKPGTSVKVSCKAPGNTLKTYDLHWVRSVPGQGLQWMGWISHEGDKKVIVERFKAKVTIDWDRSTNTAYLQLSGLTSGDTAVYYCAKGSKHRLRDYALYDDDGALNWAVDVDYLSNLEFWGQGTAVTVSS VL: DFVLTQSPHSLSVTPGESASISCKSSHSLIHGDRNNYLAWYVQKPGRSPQLLIYLASSRASGVPDRFSGSGSDTDFTLKISRVETEDVGTYYCMQGRESPWTFGQGTKVDIKR",
    "group label": "Fulfilled"
  },
  {
    "binder": "MS-89 (antibody, V domains shown) VH: QVQLVQSGPEVRKPGTSVKVSCKAPGYTLKTYDLHWVRSVPGQGLQWMGWISHEGDKKVIVERFKAKVTITWDRSTNTAYLQLSGLTSGDTAVYYCAKGSKHRLRDYALYDDDGALNWAVDVDYLSNLEFWGQGTAVTVSS VL: DFVLTQSPLSLSVTPGESASISCKSSHSLIHGDRNNYLAWYVQKPGRSPQLLIYLASSRASGVPDRFSGSGSDKDFTLKISRVETEDVGTYYCMQGRESPWTFGQGTKVDIKR",
    "group label": "Not fulfilled"
  },
  {
    "binder": "MS-83 (antibody, V domains shown) VH: QVQLVQSGPEVRKPGTSVKVSCKAPGNTLKTYDLHWVRSVPGQGLQWMGWISHEGDKKVIVERFKAKVTIDWDRSTNTAYLQLSGLTSGDTAVYYCAKGSKHRLRDYALYDDEGALNWAVDVDYLSNLEFWGQGTAVTVSS VL: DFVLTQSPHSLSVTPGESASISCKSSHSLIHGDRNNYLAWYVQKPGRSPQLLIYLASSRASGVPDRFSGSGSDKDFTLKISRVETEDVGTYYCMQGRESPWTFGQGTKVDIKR",
    "group label": "Fulfilled"
  }
]
